assay: in vivo; conditions: mouse, po, ddy male mice, peroral, read-out: LD50 p.o.
assay metric: LD50 at 24 h

I'm hoping you can list LD50 at 24 h for every compound here, please.
1. CC(C)CCc1ccc(O)cc1O [drawing 17]
2. CCCCCCc1ccc(O)cc1O [drawing 16]

Result block:
1: > 500 mg/kg; 2: > 500 mg/kg

---

For each of the molecules below, state its Activity (dopa oxidation activity).
tested on: tyrosinase; experiment: Measurement of Dopa Oxidation Activity (formation of dopa quinone from dopa); type: biochemical, Mushroom; details: L-dopa 5×10^-3 M; 10 units tyrosinase; 475 nm; control 15.80

| molecule | experimental target | reported result |
| --- | --- | --- |
| Cc1ccc(O)cc1O [drawing 15, reference compound] | tyrosinase | 16.81 μmol of dopa chrome/min/mg of |
| CCc1ccc(O)cc1O [Experiment 7] | tyrosinase | 7.44 μmol of dopa chrome/min/mg of |
| CC(C)CCc1ccc(O)cc1O [Experiment 9] | tyrosinase | 0.00 μmol of dopa chrome/min/mg of |

I'm hoping you can list Activity (dopa oxidation activity) for every molecule here, please.
1. CCCCCCCCCCCCc1ccc(O)cc1O [Experiment 12]
2. CCCCCCCCc1ccc(O)cc1O [Experiment 11]
3. Oc1ccc(O)cc1 [hydroquinone, reference compound]
4. CCCCc1ccc(O)cc1O [Experiment 8]
5. CCCCCCc1ccc(O)cc1O [Experiment 10]

Result block:
1: 7.19 μmol of dopa chrome/min/mg of; 2: 0.00 μmol of dopa chrome/min/mg of; 3: 26.94 μmol of dopa chrome/min/mg of; 4: 0.00 μmol of dopa chrome/min/mg of; 5: 0.00 μmol of dopa chrome/min/mg of
